# Test settings: [M+HCOO]-; instrument: DT; stepped-field
Endpoint: collision cross section (N2) (Å²)

CC/C=C/C=C/C=C/C=C/CCCCCCCC(=O)O[C@H](COC(=O)CCCCCCCCCCCCCCCCC)COP(=O)([O-])OCC[N+](C)(C)C :: 292.86
CCCCCCCCCCCCC=CC[C@@H](O)[C@H](COP(=O)([O-])OCC[N+](C)(C)C)NC(=O)CC=CCCCCCCCCCCCCCCCCCCC :: 303.33
CCCCCCCCCCCCCCCCCCCCCC(=O)N[C@@H](CO[C@@H]1O[C@H](CO)[C@@H](O)C(O)C1O)[C@H](O)CCCCCCCCCCCCCCC (some centres undefined) :: 298.07
CCCCCCCCCCCCCCCCCCCCCC(=O)N[C@@H](COP(=O)([O-])OCC[N+](C)(C)C)[C@H](O)CCCCCCCCCCCCCCC :: 303.38
CCCCCCCCCCCCC=CC[C@@H](O)[C@H](COP(=O)([O-])OCC[N+](C)(C)C)NC(=O)CC=CCC=CCCCCCCCCCCCCCCCCC :: 304.85
CCCCCCCCCCCCCCCCCCCC(=O)OC[C@H](COP(=O)([O-])OCC[N+](C)(C)C)OC(=O)CCCCCCCCCCC :: 286.82
CCCCCCCCCCCCC=CC[C@@H](O)[C@H](COP(=O)([O-])OCC[N+](C)(C)C)NC(=O)CC=CCCCCCCCCCCCCCC :: 289.73
CCCCCCCCCCCCC=CC[C@@H](O)[C@H](COP(=O)([O-])OCC[N+](C)(C)C)NC(=O)CCCCCCCCCCCCCCCCCCCCC :: 301.44
CC/C=C\C/C=C\C/C=C\C/C=C\C/C=C\CCCCCC(=O)O[C@H](COC(=O)CCCCCCCCCCCCCCC)COP(=O)([O-])OCC[N+](C)(C)C :: 297.3
